Reference for the values: ChEMBL document CHEMBL1127320

# Tested on: Staphylococcus aureus
# Assay Overview: In vitro minimum inhibitory concentration was measured against Staphylococcus aureus 753 (Methicillin resistant) strain.
# Type: functional
Observable: MIC

Here are 6 compounds together with their reported answers.
{"Compound": "CO/N=C(\\C(=O)N[C@@H]1C(=O)N2C(C(=O)O)=C(CN3CCN(c4cc5c(cc4F)c(=O)c(C(=O)O)cn5C4CC4)CC3)CS[C@H]12)c1csc(N)n1", "MIC": "4 µg/mL"}
{"Compound": "CO/N=C(\\C(=O)N[C@@H]1C(=O)N2C(C(=O)O)=C(COC(C)=O)CS[C@H]12)c1csc(N)n1", "MIC": "> 128 µg/mL"}
{"Compound": "CC(C)(O/N=C(\\C(=O)N[C@@H]1C(=O)N2C(C(=O)O)=C(CN3CCN(c4cc5c(cc4F)c(=O)c(C(=O)O)cn5C4CC4)CC3)CS[C@H]12)c1csc(N)n1)C(=O)O", "MIC": "8 µg/mL"}
{"Compound": "CCN1CCN(C(=O)N[C@@H](C(=O)N[C@@H]2C(=O)N3C(C(=O)O)=C(CN4CCN(c5cc6c(cc5F)c(=O)c(C(=O)O)cn6C5CC5)CC4)CS[C@H]23)c2ccc(O)cc2)C(=O)C1=O", "MIC": "2 µg/mL"}
{"Compound": "CO/N=C(\\C(=O)N[C@@H]1C(=O)N2C(C(=O)O)=C(CN3CCNCC3)CS[C@H]12)c1csc(N)n1", "MIC": "> 128 µg/mL"}
{"Compound": "Nc1nc(/C(=N/OCC(=O)O)C(=O)N[C@@H]2C(=O)N3C(C(=O)O)=C(CN4CCN(c5cc6c(cc5F)c(=O)c(C(=O)O)cn6C5CC5)CC4)CS[C@H]23)cs1", "MIC": "8 µg/mL"}

Item under review: "O=C(O)c1cn(C2CC2)c2cc(N3CCNCC3)c(F)cc2c1=O" . Reported MIC?
0.25 µg/mL

Item under review: CC(=O)OCC1=C(C(=O)O)N2C(=O)[C@@H](NC(=O)C(O)c3ccccc3)[C@H]2SC1 (stereo partly drawn) . Reported MIC?
128 µg/mL
